Test system: RXF 393 renal
Assay: NCI tumour cell line growth inhibition, 48 h
MEASUREMENT_KIND: TGI (µM)

> print(dat)
                                    molecule  measurement.kind  limit.sign  endpoint.value
 1  CN(C)CCCNC(=O)c1cc(NC(=O)CCNS(=O)(=O)c2ccc3c(c2)C(=O)c2ccccc2C3=O)cn1C               TGI           >             100
 2  NC(=O)OCC(COc1ccc(Cl)cc1)OC(=O)c1ccccc1Cl (stereo not given)               TGI           =            25.7
 3  C[C@@]12C=CC3C/C(=N\C(N)=S)C=C(CCCC4OCCO4)[C@]3(CC1)C2 (stereo not given in full)               TGI           =            31.7
 4                             NCCCNCCCNCCCN               TGI           >             100
 5  CN(C)c1ccc2c(NCCCCCCNc3ccnc4cc(N(C)C)ccc34)ccnc2c1               TGI           =            38.4
 6  CCn1c(-c2nonc2N)nc2cncc(C(=O)N3CCNCC3)c21               TGI           >              25
 7  O=S(=O)([O-])[O-].[Fe+2].c1ccc(/C(=N\Nc2ccccn2)c2ccccn2)cc1               TGI           =            11.7
 8  C/C(=N\N)C(CN(C)C)C(c1ccccc1)c1c(O)c2ccccc2oc1=O (stereo not given)               TGI           >             100
 9  CCOP(=O)(OCC)C1CCCCOC1=O (stereo not given)               TGI           >             100
10  C=C1C(=O)O[C@@H]2C1CC(=O)C(C)CC/C=C(\C)CCC[C@H](C)[C@H]2OC(C)=O (stereo not given in full)               TGI           =            24.4

* * *

Tested on: HOP-92 NSCLC
Experiment: NCI tumour cell line growth inhibition, 48 h
Each record here notes measured TGI.
MEASUREMENT_KIND: TGI (µM)

> print(dat)
                                    compound  limit.sign  endpoint.value
 1  CC(=O)OC1c2ccccc2CC2(OC(C)=O)c3ccccc3C12 (stereo not given)           >             100
 2  CS(=O)(=O)CC1=Nc2nnc(CCCCCCCc3nnc4n3C(=O)C(CS(C)(=O)=O)=N4)n2C1=O           >             100
 3       O=C(O)CS(=O)(=O)C(c1ccccc1)c1ccccc1           >             100
 4  CC12CCC(=O)C=C1CCC1C2CCC2(C)C(C(=O)Cn3cnc4c(=S)nc[nH]c43)CCC12 (stereo not given)           =            37.7
 5  Cc1cc(N2CCCCC2)nc(N(CCNc2ccnc3cc(Cl)ccc23)Cc2ccco2)n1           =            21.7
 6  CC12CCC(=O)C(O1)C1C(=O)c3cc4ccccc4cc3C(=O)C12 (stereo not given)           =            29.7
 7  C=C1C(=O)O[C@H]2C[C@@H](C)[C@@H]3CC(=O)OC[C@@]3(C)CC12 (stereo not given in full)           =            34.8
 8  O=C1c2cc3c(cc2CC12Cc1cc4c(cc1C2=O)CCCC4)CCCC3           =            50.6
 9  CC[C@H](Nc1nc(N)nc(C)c1C#N)c1nc2cccc(CN(C)c3ncc(C(=O)NO)cn3)c2c(=O)n1-c1ccccc1           =            1.52
10  COc1cc2nc(Cl)nc(Nc3cccc(C(=O)/C=C/c4ccccc4)c3)c2cc1OC           =            8.52

* * *

Tested on: OVCAR-8 ovarian
Experiment: NCI tumour cell line growth inhibition, 48 h
Each record here notes measured TGI.
MEASUREMENT_KIND: TGI

> print(dat)
                                   molecule     assay.target  measurement.kind  endpoint.value
1  CC1=C(C(=O)OCc2ccccc2)C(c2ccc3c(c2)OCO3)n2c(nc3ccccc32)N1 (stereo not given)  OVCAR-8 ovarian               TGI        > 100 µM
2  CN(C(=O)C12C3C4C1C1C2C3C41I)C(C)(C)C (stereo not given)  OVCAR-8 ovarian               TGI        > 100 µM
3  COc1ccc(C(=O)/C=C/c2ccc(Cl)cc2)cc1S(=O)(=O)Nc1c(N)nc(SC)[nH]c1=O  OVCAR-8 ovarian               TGI         9.56 µM
4  O=C(O)C1C(C(=O)O)C2C(=O)C=CC1N2Cc1ccccc1 (stereo not given)  OVCAR-8 ovarian               TGI        > 100 µM
5   O=c1n(/N=C/c2ccccc2)c(=O)n2n1C1C=CC2CC1  OVCAR-8 ovarian               TGI        > 100 µM

* * *

Test system: 786-0 renal
Test: NCI tumour cell line growth inhibition, 48 h
Where a SMILES comes first, the peptide text is derived from it. [ ]: non-standard residue; d: D form. Phe(F5) = N[CH](Cc1c(F)c(F)c(F)c(F)c1F)C(=O)O

COMPOUND	ASSAY_TARGET	TGI
C=C(C)[C@@H]1CC[C@]2(C(=O)NCCCN)CC[C@]3(C)[C@H](CC[C@@H]4[C@@]5(C)CC[C@H](O)C(C)(C)[C@@H]5CC[C@]43C)[C@@H]12	786-0 renal	63.4 µM
C/C(CN1C(=O)c2ccccc2C1=O)=N\NS(=O)(=O)c1ccc(Br)cc1	786-0 renal	> 100 µM
CCOC(=O)c1cc(Sc2ccc(N)c(C(=O)OCC)c2)ccc1N	786-0 renal	> 100 µM
OCC1OC(n2ccc3c2ncn2ncnc32)C(O)C1O (configuration not stated)	786-0 renal	> 100 µM
COC(=O)C(CC(C)C)NC(=O)C(Cc1cnc[nH]1)NC(=O)CNC(=O)C(NC(=O)C(C)NC(=O)C(Cc1c[nH]c2ccccc12)NC(=O)C(CCC(=O)O)NC(=O)C(N)Cc1c(F)c(F)c(F)c(F)c1F)C(C)C (configuration not stated) (H-[Phe(F5)]EWAVGHL-OMe; configuration not given here)	786-0 renal	> 100 µM
Cc1ccc(C(=O)Nc2ccc(S(=O)(=O)O)c3cc(S(=O)(=O)O)cc(S(=O)(=O)O)c23)cc1NC(=O)c1cccc(N)c1	786-0 renal	> 100 µM
COc1cc2cc(Oc3ccc(NC(=O)Nc4ccc(Cl)c(C(F)(F)F)c4)cc3)c(C)nc2cc1OCCN1CCCCC1	786-0 renal	3.17 µM
CC(C)(C(=O)NN)c1ccccc1	786-0 renal	> 100 µM
Fc1c(F)c(C(F)(F)F)c(F)c(F)c1N/N=C\c1c[nH]c2ccccc12	786-0 renal	14.5 µM
CN(C)CCCNC(=O)c1cc(NC(=O)CCNS(=O)(=O)c2ccc3c(c2)C(=O)c2ccccc2C3=O)cn1C	786-0 renal	> 100 µM
c1ccc2[nH]c(-c3ccc(N4CCN(c5ccc(-c6nc7ccccc7[nH]6)cc5)CC4)cc3)nc2c1	786-0 renal	> 100 µM
C=C(c1ccccc1)C1ON(C)CCc2cc(OC)c(OC)cc21 (configuration not stated)	786-0 renal	> 100 µM
CC[C@](C)(O)C(=O)O[C@H]1C(=O)O[C@@H]2C[C@H]3C(C)=CC(=O)[C@@H](O)[C@]3(C)[C@H]3[C@@]4(O)OC[C@]32[C@@H]1[C@@H](C)[C@H]4O	786-0 renal	0.832 µM
NC1CC(=O)c2cc(Cl)sc21 (configuration not stated)	786-0 renal	> 100 µM
CC(=O)[O][Pb]([O]C(C)=O)([c]1ccccc1)[c]1ccccc1	786-0 renal	> 100 µM
Nc1nc(/C=C\c2ccc([N+](=O)[O-])o2)nc(N2CCN(c3ccccc3)CC2)n1	786-0 renal	25.8 µM
Nc1ncnc2sc(=S)c3c(c12)CCC3	786-0 renal	> 100 µM
Cc1cc(N2CCCCC2)nc(N(CCNc2ccnc3cc(Cl)ccc23)Cc2ccco2)n1	786-0 renal	3.07 µM
CCCN(Cc1ccc(F)cc1)c1ccc(CO)c(Cl)c1	786-0 renal	19.7 µM
CS(=O)(=O)CC1=Nc2nnc(CCCCCCCc3nnc4n3C(=O)C(CS(C)(=O)=O)=N4)n2C1=O	786-0 renal	> 100 µM
COc1ccc(/C=C/c2cc(OC)c(OC)c(OC)c2)cc1O	786-0 renal	15.3 µM
CCCN1C(=O)/C(=c2\sc3n(c2=O)C2C(NN=3)N(CC)C(=O)N2CC)c2ccccc21 (configuration not stated)	786-0 renal	16.5 µM
CCCCCC(=O)Nc1n[nH]nc1C(N)=O	786-0 renal	> 100 µM
Clc1cccc(Cl)c1C=NC12CC3CC(CC(C3)C1)C2	786-0 renal	> 10 µM
COc1ccccc1C1CC(=O)CC(c2ccccc2OC)C12C(=O)NC(=S)NC2=O (configuration not stated)	786-0 renal	> 100 µM
CCOC(=O)c1c2c(n(CC(C)C)c1C)-c1nc[nH]c1C(=O)C2=O	786-0 renal	33.3 µM
CCOC(=O)NC(C(F)(F)F)(C(F)(F)F)P(=O)(OC(C)C)OC(C)C	786-0 renal	> 100 µM
CCOC(=O)CSc1ccnc(=O)[nH]1	786-0 renal	> 100 µM
NC(=O)c1cc2ccccc2oc1=Nc1ccccc1	786-0 renal	> 100 µM
N=C(N)c1nn(C2OC(CO)C(O)C2O)c2nc[nH]c(=O)c12 (configuration not stated)	786-0 renal	4.61 µM
O=C(NO)c1ccc([N+](=O)[O-])cc1	786-0 renal	> 100 µM
O=C(O)c1c[nH]c2c(Sc3ccccc3)nccc2c1=O	786-0 renal	> 100 µM
